List of Kd values.
molecular target: Recombinant bovine HSC70 (Stressgen) (bovine) (UniProt P19120); assay: SPR Biacore 3000, HSC70 immobilised, peptide analyte at 25 uM, 1:1 Langmuir fit
Sequence (P19120 whole entry): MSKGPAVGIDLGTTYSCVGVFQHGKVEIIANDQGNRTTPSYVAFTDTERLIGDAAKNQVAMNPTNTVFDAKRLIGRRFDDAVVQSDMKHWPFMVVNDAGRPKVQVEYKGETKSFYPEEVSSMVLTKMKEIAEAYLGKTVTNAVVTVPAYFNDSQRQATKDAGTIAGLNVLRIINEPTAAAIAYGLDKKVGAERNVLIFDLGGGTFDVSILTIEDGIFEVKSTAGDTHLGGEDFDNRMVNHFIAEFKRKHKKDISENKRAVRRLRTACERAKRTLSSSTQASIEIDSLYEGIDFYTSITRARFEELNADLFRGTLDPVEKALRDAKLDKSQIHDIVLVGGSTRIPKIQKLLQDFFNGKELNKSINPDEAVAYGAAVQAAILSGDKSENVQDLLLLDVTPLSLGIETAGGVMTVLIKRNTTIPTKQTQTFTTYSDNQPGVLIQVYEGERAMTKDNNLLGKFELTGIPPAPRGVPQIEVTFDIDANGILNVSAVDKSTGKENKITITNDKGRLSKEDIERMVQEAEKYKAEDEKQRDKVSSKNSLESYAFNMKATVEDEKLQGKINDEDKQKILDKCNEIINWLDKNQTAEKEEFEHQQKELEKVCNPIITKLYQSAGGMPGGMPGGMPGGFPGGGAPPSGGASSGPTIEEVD
Square brackets hold non-standard residues; d marks the D form. Ends that are not written are not given here. Met(O) = CS(=O)CC[C@H](N)C(=O)O; pS = N[C@@H](COP(=O)(O)O)C(=O)O

>  <binder>
RIHMVYSKR[pS]GKPRGYAFIEY [P140 peptide (peptide consisting of SEQ ID NO: 1 in which serine at position 10 is phosphorylated)]

>  <observed_value>
6.94 µM

$$$$

Let us move to another entry and its Kd.
stdin: Sample RIH[Met(O)]VYSKR[pS]GKPRGYAFIEY — what was its Kd?
stdout: 1.91 µM

Reference source for all entries: patent US20160166636A1
